Target: T1, PDL1-Fc fusion protein (human)
T1 construct: expressed in CHO or HEK293 cells; also called Human PDL1-Fc; recombinant human PDL1-Fc
T1 sequence (chain, as listed by the source limits assumed): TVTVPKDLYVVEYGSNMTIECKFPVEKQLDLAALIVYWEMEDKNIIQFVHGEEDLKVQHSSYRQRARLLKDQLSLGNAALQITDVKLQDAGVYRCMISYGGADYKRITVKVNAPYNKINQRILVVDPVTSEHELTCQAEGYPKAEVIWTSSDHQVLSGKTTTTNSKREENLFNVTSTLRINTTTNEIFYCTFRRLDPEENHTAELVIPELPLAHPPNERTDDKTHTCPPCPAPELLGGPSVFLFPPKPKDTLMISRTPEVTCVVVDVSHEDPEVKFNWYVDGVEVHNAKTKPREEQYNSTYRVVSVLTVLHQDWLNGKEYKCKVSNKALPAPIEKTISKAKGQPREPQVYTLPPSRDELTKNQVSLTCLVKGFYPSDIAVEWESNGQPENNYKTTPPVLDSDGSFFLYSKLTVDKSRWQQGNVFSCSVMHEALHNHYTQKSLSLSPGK
Experiment: ELISA, ratio of OD on PDL1-Fc to OD of blank control
Quantity Name: OD (PDL1/blank) (ratio)
Numeric only. Scale: ratio

A selection of reference data follows.
| Binder | OD (PDL1/blank) (ratio) |
| --- | --- |
| PDL1-81 dAb (VHH, camel heavy chain single domain antibody expressed in E. coli, purified on nickel; also called antibody No. 81; not shown: His tag from expression vector PET32b) VHH: QVQLQESGGGSVQAGGSLRLSCAASGNIIRVRCMAWFRQAPGKERERGPNILTTTISTYLADSVKGRFTISQNNAKSTVYLQMNSLKPEDTAMYYCAADSFGYPTCPGPASSGAFQYWGQGTQVTVSS | 49.6 |
| PDL1-10 dAb (VHH, camel heavy chain single domain antibody expressed in E. coli, purified on nickel; also called antibody No. 10; not shown: His tag from expression vector PET32b) VHH: QVQLQESGGGSVQAGGSLRLSCAASGNIVSSYCMGWFRQAPGKERVGVAAIDSDGTTKYADSMKGRFTISKDNAKNTLDLQMNSLKPEDTAMYYCVARLNCPGPVDWVPMFPYRGQGTQVTVSS | 15.8 |
| PDL1-87 dAb (VHH, camel heavy chain single domain antibody expressed in E. coli, purified on nickel; also called antibody No. 87; not shown: His tag from expression vector PET32b) VHH: QVQLQESGGGSVQAGGSLKLSCAASGYIFSSCGMGWYRQAPGKERELVSTISSDGTTSYADSVKGRFTISQDNAKNTLYLQMNSLKTEDTAVYYCVADCPPIPEFTSCSGGYCLSGDYWGQGTQVTVSS | 41.4 |

stdin: What value of measured OD (PDL1/blank) is listed for PDL1-94 dAb (VHH, camel heavy chain single domain antibody expressed in E. coli, purified on nickel; also called antibody No. 94; not shown: His tag from expression vector PET32b) VHH: QVQLQESGGGSVQAGGSLRLSCAASLNIFSSYCMGWFRQAPGKQRVGVATIDSDGTTRYVDSVKGRFTISKDNAKNTLDLQMNSLKPEDTAMYYCAARLNCPGPVDWVPMFPYRGQGTQVTVSS ?
stdout: 16.2
